Quick reference: IC50 of the listed items.
Target: Cyclin-dependent kinase 1/cyclin B (Homo sapiens, UniProt P06493)
Test: Inhibition of cyclin-dependent kinase 1-cyclin B
REPORTED_ENDPOINT: IC50 (nM)

>>> experimental_result("CC(C)(C)c1cnc(CSc2cnc(NC(=O)Cc3cccnc3)s2)o1")
80
>>> experimental_result("CC(C)(C)c1cnc(CSc2cnc(Nc3ccccc3)s2)o1")
12
>>> experimental_result("CC(C)(C)c1cnc(CSc2cnc(Nc3ccc(S(=O)(=O)NCCO)cc3)s2)o1")
10
>>> experimental_result("CC(C)(C)c1cnc(CSc2cnc(Nc3ccccn3)s2)o1")
4
>>> experimental_result("CC(C)(C)c1cnc(CSc2cnc(Nc3cccnc3)s2)o1")
10
>>> experimental_result("CC(C)(CO)CNCc1ccc(Nc2ncc(SCc3ncc(C(C)(C)C)o3)s2)nc1")
18

* * *

Target: Cyclin-dependent kinase 2/cyclin E (Homo sapiens, UniProt P24941)
Assay: Inhibition of Cyclin-dependent kinase 2-cyclin E
Type: protein-complex assay
REPORTED_ENDPOINT: IC50

>>> experimental_result("CC(C)(C)c1cnc(CSc2cnc(NC(=O)Cc3cccnc3)s2)o1")
"5 nM"
>>> experimental_result("CC(C)(C)c1cnc(CSc2cnc(Nc3ccccc3)s2)o1")
"4 nM"
>>> experimental_result("CC(C)(CO)CNCc1ccc(Nc2ncc(SCc3ncc(C(C)(C)C)o3)s2)nc1")
"3 nM"
>>> experimental_result("CC(C)(C)c1cnc(CSc2cnc(Nc3ccc(S(=O)(=O)NCCO)cc3)s2)o1")
"2 nM"
>>> experimental_result("CC(C)(C)c1cnc(CSc2cnc(Nc3ccccn3)s2)o1")
"2 nM"
>>> experimental_result("CC(C)(C)c1cnc(CSc2cnc(Nc3cccnc3)s2)o1")
"3 nM"

Values were extracted from ChEMBL document CHEMBL1148265.
